Tested on: H9c2 cardiomyocytes, 2-deoxyglucose stress, ATP luminescence, 2 h
PROTOCOL: H9c2 cell survival under 2-deoxyglucose stress – uHTS hits, dose response (AID 588780)
Activity calls are given as the source filed them.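 Rule for the calls: active = compounds whose fitted half-maximal concentration in the cell-protection dose series is at or below a set limit; inactive = the rest.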
Your answer must be one of the following: active, inactive

Field: example entries. Status: answers known.
- COMPOUND: "COc1ccc(-c2cc(-c3ccc(O)cc3)nc(N)c2C#N)cc1OC"
  SYSTEM NAME: "H9c2 cardiomyocytes, 2-deoxyglucose stress, ATP luminescence, 2 h"
  GROUP LABEL: "inactive"
- COMPOUND: "C/C(=N\\NC(=O)c1nnn(-c2nonc2N)c1CSc1ccc(C)cc1)c1cccnc1"
  SYSTEM NAME: "H9c2 cardiomyocytes, 2-deoxyglucose stress, ATP luminescence, 2 h"
  GROUP LABEL: "inactive"
- COMPOUND: "CC1Cc2ccccc2C(=O)N1 (stereo not drawn)"
  SYSTEM NAME: "H9c2 cardiomyocytes, 2-deoxyglucose stress, ATP luminescence, 2 h"
  GROUP LABEL: "inactive"
- COMPOUND: "COc1cc2nc(Nc3ccc(F)cc3)nc(N)c2cc1OC"
  SYSTEM NAME: "H9c2 cardiomyocytes, 2-deoxyglucose stress, ATP luminescence, 2 h"
  GROUP LABEL: "inactive"
- COMPOUND: "O=c1[nH]c(CN2CCCC2)nc2sc3c(c12)CCC3"
  SYSTEM NAME: "H9c2 cardiomyocytes, 2-deoxyglucose stress, ATP luminescence, 2 h"
  GROUP LABEL: "inactive"
- COMPOUND: "CC(=O)N1CCN(c2ccccc2NC(=O)c2ccc(-c3cccc([N+](=O)[O-])c3)o2)CC1"
  SYSTEM NAME: "H9c2 cardiomyocytes, 2-deoxyglucose stress, ATP luminescence, 2 h"
  GROUP LABEL: "active"
- COMPOUND: "O=C(CSc1nc2ccccc2c(=O)[nH]1)N1CCN(S(=O)(=O)c2ccccc2)CC1"
  SYSTEM NAME: "H9c2 cardiomyocytes, 2-deoxyglucose stress, ATP luminescence, 2 h"
  GROUP LABEL: "inactive"

In the following, a different compound is considered.
Entry NC(=O)c1cccc(-c2coc3c(C(=O)NCCc4ccccc4)cccc23)c1 : call = ? inactive

###

Listed compounds paired with reported IC50
Tested on: H9c2 cardiomyocytes, 2-deoxyglucose stress, ATP luminescence, 2 h
PROTOCOL: H9c2 cell survival under 2-deoxyglucose stress – uHTS hits, dose response (AID 588780)
Active and inactive are the calls of the source.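 The calls were made as follows: active = compounds whose fitted half-maximal concentration in the cell-protection dose series is at or below a set limit; inactive = the rest.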

Reference set, count: 3
- COMPOUND: "O=c1[nH]c2cc([N+](=O)[O-])ccc2c2ccccc12"
  IC50: "> 79 µM (inactive)"
- COMPOUND: "CC(OC(=O)Cc1n[nH]c(=O)c2ccccc12)C(=O)Nc1cccc([N+](=O)[O-])c1 (stereo unspecified)"
  IC50: "44.4 µM (inactive)"
- COMPOUND: "c1ccc(-c2nn3c(-c4ccco4)nnc3s2)nc1"
  IC50: "43.9 µM (inactive)"

Recorded IC50 (compound CC(Oc1ccc(Br)cc1)C(=O)Nc1nc(-c2ccccn2)cs1 (stereo unspecified) ): > 79 µM (inactive)

The measured IC50 associated with CC(C)c1ccc(S(=O)(=O)N2CCN(CC(=O)c3ccc(O)c(O)c3)CC2)cc1 reads 21.3 µM

Value of IC50 reported for the compound CC1CCCC(C)N1C(=O)CSc1nc2ccccc2c(=O)[nH]1 (stereo unspecified) is > 79 µM (inactive)
